All values here come from patent US7560458B2.

Biological target: GSK3alpha (Homo sapiens, UniProt P49840)
Sequence (P49840 whole entry, species assumed): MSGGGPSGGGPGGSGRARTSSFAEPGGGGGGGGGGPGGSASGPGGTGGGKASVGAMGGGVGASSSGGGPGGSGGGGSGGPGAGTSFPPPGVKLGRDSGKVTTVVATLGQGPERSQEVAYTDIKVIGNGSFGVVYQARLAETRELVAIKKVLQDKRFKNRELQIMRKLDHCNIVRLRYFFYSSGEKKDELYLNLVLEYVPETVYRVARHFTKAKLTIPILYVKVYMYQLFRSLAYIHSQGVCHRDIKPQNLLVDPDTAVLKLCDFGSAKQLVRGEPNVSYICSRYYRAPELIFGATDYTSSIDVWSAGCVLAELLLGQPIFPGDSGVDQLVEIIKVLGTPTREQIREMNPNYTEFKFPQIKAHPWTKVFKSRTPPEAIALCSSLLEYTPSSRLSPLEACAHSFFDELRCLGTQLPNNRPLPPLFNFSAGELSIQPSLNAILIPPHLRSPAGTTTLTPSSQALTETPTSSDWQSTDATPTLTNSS
Test: GSK3alpha assay (same as the GSK3beta assay, GSK3alpha 0.25 ng/μl)
Format: biochemical
Conditions: −log IC50 (M); given as ranges (>8; 7-8; <7); read-out: pIC50 (GSK3alpha) (converted)
Collected IC50 values appear next to each entry.

# example entries with known answers
{"COMPOUND": "COCCOCc1cccc(-n2nnc3cnc(Nc4ccc(CCO)cc4)nc32)c1", "IC50": "< 1e-08 M"}
{"COMPOUND": "COCc1cccc(-n2nnc3cnc(Nc4cccc(S(C)(=O)=O)c4)nc32)c1", "IC50": "1e-08 to 1e-07 M"}
{"COMPOUND": "COCC(=O)NCc1cccc(-n2nnc3cnc(Nc4ccc(NC(C)=O)c(C(=O)OC)c4)nc32)c1", "IC50": "< 1e-08 M"}
{"COMPOUND": "O=C(O)c1cc(Nc2ncc3nnn(-c4cccc(F)c4)c3n2)ccc1Cl", "IC50": "1e-08 to 1e-07 M"}
{"COMPOUND": "NCCc1ccc(Nc2ncc3nnn(-c4cccc(F)c4)c3n2)cc1", "IC50": "1e-08 to 1e-07 M"}

Request: Answer with the recorded IC50 for the compound listed here: COCCOc1cccc(-n2nnc3cnc(Nc4ccc(F)cc4)nc32)c1
Response: < 1e-08 M

Request: Answer with the recorded IC50 for the compound listed here: N#Cc1ccc(Nc2ncc3nnn(-c4cccc(CNC(=O)C5CC5)c4)c3n2)cc1
Response: < 1e-08 M

Request: Answer with the recorded IC50 for the compound listed here: N#Cc1cccc(Nc2ncc3nnn(-c4cccc(F)c4)c3n2)c1
Response: < 1e-08 M

Request: Answer with the recorded IC50 for the compound listed here: O=C(O)Cc1cccc(-n2nnc3cnc(Nc4cccc(C(=O)NCCO)c4)nc32)c1
Response: 1e-08 to 1e-07 M

Request: Answer with the recorded IC50 for the compound listed here: CN(C)CCCOc1ccc(Nc2ncc3nnn(-c4cccc(F)c4)c3n2)cc1
Response: 1e-08 to 1e-07 M

Request: Answer with the recorded IC50 for the compound listed here: N#CCc1cccc(-n2nnc3cnc(Nc4ccc(CCO)cc4)nc32)c1
Response: < 1e-08 M

Request: Answer with the recorded IC50 for the compound listed here: COCc1cccc(-n2nnc3cnc(Nc4ccc(CCN)cc4)nc32)c1
Response: 1e-08 to 1e-07 M

Request: Answer with the recorded IC50 for the compound listed here: CC(O)c1cccc(Nc2ncc3nnn(-c4cccc(CC#N)c4)c3n2)c1 (stereo not drawn)
Response: < 1e-08 M

Request: Answer with the recorded IC50 for the compound listed here: NC(=O)CNC(=O)c1cccc(Nc2ncc3nnn(-c4cccc(CC(=O)O)c4)c3n2)c1
Response: 1e-08 to 1e-07 M

Request: Answer with the recorded IC50 for the compound listed here: CN(C)CCOc1ccc(Nc2ncc3nnn(-c4cccc(F)c4)c3n2)cc1
Response: 1e-08 to 1e-07 M

* * *

Biological target: GSK3β (Homo sapiens)
Experiment: GSK3beta assay (SPA, biotinylated phosphorylated CREB peptide, ATP-P33)
Type: biochemical
Settings: −log IC50 (M); given as ranges (>8; 7-8; <7); read-out: pIC50 (GSK3beta) (converted)
MEASUREMENT_TYPE: IC50

# example entries with known answers
{"RECORD_SMILES": "O=C(O)c1ccc(Nc2ncc3nnn(-c4cccc(CCO)c4)c3n2)cc1", "MEASUREMENT_TYPE": "IC50", "ASSAY_VALUE": "< 1e-08 M"}
{"RECORD_SMILES": "Cn1ccnc1-c1cccc(-n2nnc3cnc(Nc4cccc(C#N)c4)nc32)c1", "MEASUREMENT_TYPE": "IC50", "ASSAY_VALUE": "< 1e-08 M"}

Request: Answer with the recorded IC50 for the compound listed here: COc1cccc(-n2nnc3cnc(Nc4cccc(C(=O)O)c4)nc32)c1
Response: 1e-08 to 1e-07 M

Request: Answer with the recorded IC50 for the compound listed here: CCOC(=O)NCc1cccc(-n2nnc3cnc(Nc4ccc(CC(=O)O)cc4)nc32)c1
Response: < 1e-08 M

Request: Answer with the recorded IC50 for the compound listed here: CC(=O)Nc1ccc(Nc2ncc3nnn(-c4ccccc4)c3n2)cn1
Response: 1e-08 to 1e-07 M

Request: Answer with the recorded IC50 for the compound listed here: N#Cc1ccc(Nc2ncc3nnn(-c4cccc(CCO)c4)c3n2)cc1
Response: < 1e-08 M

* * *

Target: GSK3β (Homo sapiens, UniProt P49841)
Sequence (P49841 whole entry, species assumed): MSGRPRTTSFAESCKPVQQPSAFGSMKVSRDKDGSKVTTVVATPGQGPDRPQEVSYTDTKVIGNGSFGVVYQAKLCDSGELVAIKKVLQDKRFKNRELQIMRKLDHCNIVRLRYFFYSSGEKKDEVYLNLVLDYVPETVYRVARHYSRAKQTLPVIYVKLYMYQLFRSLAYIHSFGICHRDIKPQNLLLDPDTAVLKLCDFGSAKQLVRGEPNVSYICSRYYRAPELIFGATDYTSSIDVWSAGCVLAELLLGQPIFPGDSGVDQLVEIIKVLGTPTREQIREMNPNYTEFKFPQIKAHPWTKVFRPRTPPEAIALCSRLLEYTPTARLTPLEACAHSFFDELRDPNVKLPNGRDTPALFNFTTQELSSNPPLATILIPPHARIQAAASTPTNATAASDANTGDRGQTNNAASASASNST
Experiment: GSK3beta assay (SPA, biotinylated phosphorylated CREB peptide, ATP-P33)
Assay type: biochemical
Conditions: −log IC50 (M); given as ranges (>8; 7-8; <7); read-out: pIC50 (GSK3beta) (converted)
Collected IC50 values appear next to each entry.

# example entries with known answers
{"COMPOUND": "COCc1cccc(-n2nnc3cnc(Nc4cccc(C(C)O)c4)nc32)c1 (stereo not drawn) [Compound 143]", "MEASUREMENT_TYPE": "IC50", "ASSAY_VALUE": "< 1e-08 M"}
{"COMPOUND": "CCOc1ccc(Nc2ncc3nnn(-c4ccccc4)c3n2)cn1 [Compound 82]", "MEASUREMENT_TYPE": "IC50", "ASSAY_VALUE": "1e-08 to 1e-07 M"}

Shift focus to the following entry.
Request: Check GSK3β (Homo sapiens, UniProt P49841) data and give IC50 for COCC(=O)NCc1cccc(-n2nnc3cnc(Nc4cccc(C#N)c4)nc32)c1 [Compound 175] .
Response: < 1e-08 M
